Quick list: Plant response rating, Barley, Winter per entry.
# System: barley, winter (winter barley, Hordeum vulgare)
# TEST_METHOD_NOTES: Test D controlled growth environment herbicide test, pre- and postemergence
# Format: in vivo
# RUN_CONDITIONS: Postemergence, 125 g ai/ha; visual rating on scale 0 (no effect) to 100 (complete control), 14 to 21 d
MEASURED_PARAMETER: Plant response rating, Barley, Winter

{"COMPOUND": "CCc1sc2ccc(C)cc2c1-c1c(O)c(C)nn(C)c1=O [Compound 47]", "MEASURED_PARAMETER": "Plant response rating, Barley, Winter", "VAL": 15}
{"COMPOUND": "CCc1sc2c(C)cc(C)cc2c1-c1c(O)c(C)nn(C)c1=O [Compound 57]", "MEASURED_PARAMETER": "Plant response rating, Barley, Winter", "VAL": 25}
{"COMPOUND": "Cc1nn(C)c(=O)c(-c2ccc(Br)c3ccccc23)c1O [Compound 75]", "MEASURED_PARAMETER": "Plant response rating, Barley, Winter", "VAL": 0}
{"COMPOUND": "Cc1cc2ccccc2c(-c2c(O)c(C)nn(C)c2=O)c1C [Compound 34]", "MEASURED_PARAMETER": "Plant response rating, Barley, Winter", "VAL": 0}
{"COMPOUND": "Cc1cc(C)c2sc(C)c(-c3c(O)c(C)nn(C)c3=O)c2c1 [Compound 2]", "MEASURED_PARAMETER": "Plant response rating, Barley, Winter", "VAL": 15}
